Tested on: SN12C
Assay: Cytotoxicity against Homo sapiens (human) SN12C cells assessed as growth inhibition at 10 uM after 48 hr by coulter counter analysis
Format: functional
Conditions: read-out: GI
readout: inhibition of growth at 10 µM (%)
Note: unit % is implicit; provide only the numeric part.

In the examples that follow, each entry is paired with its recorded inhibition of growth at 10 µM.
- COc1ccc(C2C3=C(CCCC3)Nc3nc(-c4ccccc4)[nH]c(=O)c32)cc1OC (stereo not given): 10.8
- COc1ccc(-c2nc3c(c(=O)[nH]2)C(c2ccc(OC)c(OC)c2)C2=C(CCCC2)N3)cc1OC (stereo not given): 15
- COc1ccc(-c2nc3c(c(=O)[nH]2)C(c2ccc(Cl)cc2)C2=C(CCCC2)N3)cc1OC (stereo not given): 12
- COc1ccc(C2C3=C(CCCC3)Nc3nn[nH]c(=O)c32)cc1OC (stereo not given): 10.8
- COc1ccc(C2C3=C(CCCC3)Nc3nc(-c4ccc(N(C)C)cc4)[nH]c(=O)c32)cc1OC (stereo not given): 12.9

// next entry
Reported inhibition of growth at 10 µM, compound CN(C)c1ccc(-c2nc3c(c(=O)[nH]2)C(c2ccc(Cl)cc2)C2=C(CCCC2)N3)cc1 (stereo not given) : ____
14.6

---

Tested on: LOX IMVI
Assay: Cytotoxicity against Homo sapiens (human) LOXIMVI cells assessed as growth inhibition at 10 uM after 48 hr by coulter counter analysis
Type: functional
Conditions: read-out: GI
readout: inhibition of growth at 10 µM (%)
Note: unit % is implicit; provide only the numeric part.

• Oc1ccc(-c2nc3c4c(ncn3n2)NC2=C(CCCC2)C4c2ccc(Cl)cc2)cc1 (stereo not given) = 14.3

Reported inhibition of growth at 10 µM, compound Clc1ccc(C2C3=C(CCCC3)Nc3ncn4nc(-c5ccccc5)nc4c32)cc1 (stereo not given) : ____
15.1

---

Item-by-item account of inhibition of growth at 10 µM
System: NCI-H226
Experiment: Cytotoxicity against Homo sapiens (human) NCI-H226 cells assessed as growth inhibition at 10 uM after 48 hr by coulter counter analysis
Type: functional
Conditions: NCI-H226, 48 h, read-out: GI
Note: unit % is implicit; provide only the numeric part.

- COc1ccc(-c2nc3c(c(=O)[nH]2)C(c2ccc(Cl)cc2)C2=C(CCCC2)N3)cc1OC (centres undefined): 11
- Clc1ccc(C2C3=C(CCCC3)Nc3ncn4nc(-c5ccccc5)nc4c32)cc1 (centres undefined): 15.2
- COc1ccc(-c2nc3c(c(=O)[nH]2)C(c2ccc(OC)c(OC)c2)C2=C(CCCC2)N3)cc1OC (centres undefined): 13.3
- COc1ccc(C2C3=C(CCCC3)Nc3nc(-c4ccccc4)[nH]c(=O)c32)cc1OC (centres undefined): 15.9
- COc1ccc(C2C3=C(CCCC3)Nc3nc(-c4ccc(N(C)C)cc4)[nH]c(=O)c32)cc1OC (centres undefined): 13.6

Reported inhibition of growth at 10 µM, compound O=c1[nH]c(-c2ccccc2)nc2c1C(c1ccc(Cl)cc1)C1=C(CCCC1)N2 (centres undefined) : ____
12.3

Reported inhibition of growth at 10 µM, compound O=c1[nH]nnc2c1C(c1ccc(Cl)cc1)C1=C(CCCC1)N2 (centres undefined) : ____
10.3

---

System: SK-MEL-28
Assay: Cytotoxicity against Homo sapiens (human) SK-MEL-28 cells assessed as growth inhibition at 10 uM after 48 hr by coulter counter analysis
Assay type: functional
Conditions: SK-MEL-28, 48 h, read-out: GI
readout: inhibition of growth at 10 µM

* COc1ccc(-c2nc3c(c(=O)[nH]2)C(c2ccc(Cl)cc2)C2=C(CCCC2)N3)cc1OC (stereo not given) | < 10%
* O=c1[nH]c(-c2ccccc2)nc2c1C(c1ccc(Cl)cc1)C1=C(CCCC1)N2 (stereo not given) | < 10%
* COc1ccc(C2C3=C(CCCC3)Nc3nc(-c4ccccc4)[nH]c(=O)c32)cc1OC (stereo not given) | < 10%

Reported inhibition of growth at 10 µM, molecule COc1ccc(C2C3=C(CCCC3)Nc3nc(-c4ccc(N(C)C)cc4)[nH]c(=O)c32)cc1OC (stereo not given) : ____
< 10%

Reported inhibition of growth at 10 µM, molecule Oc1ccc(-c2nc3c4c(ncn3n2)NC2=C(CCCC2)C4c2ccc(Cl)cc2)cc1 (stereo not given) : ____
< 10%

Reported inhibition of growth at 10 µM, molecule COc1ccc(C2C3=C(CCCC3)Nc3ncn4nc(-c5ccccc5)nc4c32)cc1OC (stereo not given) : ____
< 10%

Reported inhibition of growth at 10 µM, molecule COc1ccc(C2C3=C(CCCC3)Nc3nn[nH]c(=O)c32)cc1OC (stereo not given) : ____
< 10%

Reported inhibition of growth at 10 µM, molecule COc1ccc(C2C3=C(CCCC3)Nc3[nH]c(=S)nc(NC(N)=S)c32)cc1OC (stereo not given) : ____
< 10%

Reported inhibition of growth at 10 µM, molecule N#CCc1nc2c(c(=O)[nH]1)C(c1ccc(Cl)cc1)C1=C(CCCC1)N2 (stereo not given) : ____
< 10%

Reported inhibition of growth at 10 µM, molecule Clc1ccc(C2C3=C(CCCC3)Nc3ncn4nc(-c5ccccc5)nc4c32)cc1 (stereo not given) : ____
< 10%

---

Tested on: MDA-MB-435
Assay: Cytotoxicity against Homo sapiens (human) MDA-MB-435 cells assessed as growth inhibition at 10 uM after 48 hr by coulter counter analysis
Assay type: functional
Details: MDA-MB-435, 48 h, read-out: GI
readout: inhibition of growth at 10 µM

• CN(C)c1ccc(-c2nc3c(c(=O)[nH]2)C(c2ccc(Cl)cc2)C2=C(CCCC2)N3)cc1 (centres undefined) = < 10%
• COc1ccc(C2C3=C(CCCC3)Nc3ncn4nc(-c5ccccc5)nc4c32)cc1OC (centres undefined) = < 10%
• COc1ccc(C2C3=C(CCCC3)Nc3[nH]c(=S)nc(NC(N)=S)c32)cc1OC (centres undefined) = 70.7%

// next entry
Reported inhibition of growth at 10 µM, compound Oc1ccc(-c2nc3c4c(ncn3n2)NC2=C(CCCC2)C4c2ccc(Cl)cc2)cc1 (centres undefined) : ____
< 10%

---

Tested on: LOX IMVI
Test: Cytotoxicity against Homo sapiens (human) LOXIMVI cells assessed as growth inhibition at 10 uM after 48 hr by coulter counter analysis
Assay type: functional
Conditions: read-out: GI
Item-by-item account of inhibition of growth at 10 µM

In the examples that follow, each entry is paired with its recorded inhibition of growth at 10 µM.
• COc1ccc(-c2nc3c(c(=O)[nH]2)C(c2ccc(Cl)cc2)C2=C(CCCC2)N3)cc1OC (stereo not drawn) = < 10%
• COc1ccc(C2C3=C(CCCC3)Nc3nn[nH]c(=O)c32)cc1OC (stereo not drawn) = < 10%

Reported inhibition of growth at 10 µM, molecule COc1ccc(C2C3=C(CCCC3)Nc3nc(-c4ccccc4)[nH]c(=O)c32)cc1OC (stereo not drawn) : ____
< 10%

Value source: ChEMBL document CHEMBL3045802
